// pIC50 lookup, one value per entry
molecular target: His-PKC-theta (Homo sapiens); construct: His; purchased Invitrogen; experiment: PKC-theta Assay (384-well time resolved fluorescence, IMAP TR-FRET); type: biochemical; details: read-out: Act. Level (IC50 in the PKC-theta Assay)
Sequence (Q04759 whole entry): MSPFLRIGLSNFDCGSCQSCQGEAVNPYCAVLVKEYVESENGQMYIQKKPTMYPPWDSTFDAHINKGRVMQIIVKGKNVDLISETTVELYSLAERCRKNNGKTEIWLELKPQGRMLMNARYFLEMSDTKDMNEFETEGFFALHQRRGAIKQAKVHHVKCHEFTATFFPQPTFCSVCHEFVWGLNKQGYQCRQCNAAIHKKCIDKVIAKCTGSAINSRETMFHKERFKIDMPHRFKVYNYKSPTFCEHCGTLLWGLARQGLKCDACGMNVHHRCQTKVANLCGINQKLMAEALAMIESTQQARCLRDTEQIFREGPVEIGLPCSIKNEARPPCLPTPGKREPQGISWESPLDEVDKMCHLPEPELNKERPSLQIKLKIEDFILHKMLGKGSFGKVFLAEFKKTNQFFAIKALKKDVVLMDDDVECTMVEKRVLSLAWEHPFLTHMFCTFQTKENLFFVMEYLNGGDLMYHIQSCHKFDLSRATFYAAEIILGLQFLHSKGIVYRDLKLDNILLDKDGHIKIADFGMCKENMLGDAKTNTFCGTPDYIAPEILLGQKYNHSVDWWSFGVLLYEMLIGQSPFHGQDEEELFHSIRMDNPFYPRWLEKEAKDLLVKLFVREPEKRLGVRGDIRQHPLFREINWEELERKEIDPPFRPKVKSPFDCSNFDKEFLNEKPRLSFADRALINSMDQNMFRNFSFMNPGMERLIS
pIC50: −log10 of the molar value.

| Compound | Value measured |
| --- | --- |
| Cc1ccn(CCNc2ncc(C#N)c(N[C@@H]3CC[C@H](O)C(C)(C)C3)n2)n1 | 5.00 to 5.70 |

Per the record, "CC1(C)C[C@H](Nc2nc(NCCc3ccc(OCC(F)(F)F)nc3)ncc2C#N)CC[C@@H]1O" has pIC50 of 6.10 to 7.00

Per the record, "CC1(C)[C@H](Nc2nc(NCc3cncnc3OCC(F)F)ncc2C#N)C[C@]1(C)O" has pIC50 of > 7.00

Per the record, "CNC(=O)[C@H]1CC[C@@H](Nc2nc(NCc3cnccc3C(F)(F)F)ncc2C#N)CC1" has pIC50 of > 7.00

Per the record, "CC1(C)C[C@H](Nc2nc(NCc3c[n+]([O-])ccc3C(F)(F)F)ncc2C(F)(F)F)CC[C@@H]1O" has pIC50 of > 7.00

Per the record, "CC1(C)[C@@H](O)C[C@H]1Nc1nc(NCCc2cncc(C(F)(F)F)c2)ncc1C#N" has pIC50 of 5.70 to 6.10

Per the record, C[C@]1(O)CC2(C[C@H](Nc3nc(NCCC4C(=O)Nc5ccccc54)ncc3C#N)C2)C1 (some centres unmarked) [Cmpd 301] has pIC50 of 6.10 to 7.00

Per the record, COc1cccc2c(CCNc3ncc(C#N)c(NC4CCC(O)CC4)n3)c[nH]c12 (centres unmarked) has pIC50 of 5.70 to 6.10
